- PROTOCOL DESCRIPTION: Toxicity in Swiss albino mouse assessed as mortality at 3 mmol/kg, ip measured 7 to 11 mins before pentylenetetrazole challenge
- Type: organism-based
- CONDITION: in vivo, read-out: Activity
MEASURED QUANTITY: mortality

**Query** Fill in the blank: the reported mortality of O=C1CCCN2C(=N1)Oc1ccc(Cl)cc12 is ____.
**Result** 0%

**Query** Fill in the blank: the reported mortality of O=C1CCCN2C(=N1)Sc1cc(Cl)ccc12 is ____.
**Result** 0%

**Query** Fill in the blank: the reported mortality of S=C1CCCN2C=C(Br)SC2=N1 is ____.
**Result** 0%
